Entry source: PubChem BioAssay AID179

# pEC50 listing for each entry below
System: CEM cells HIV-1 protection, formazan growth assay
Experiment: NCI AIDS Antiviral Assay
Procedure: The ability of compounds to protect human CEM cells from HIV-1 infection is measured as a screen for new compounds capable of inhibiting the HIV virus. Five concentrations of drug were tested on uninfected and infected cells and cell growth was measured using a soluble formazan assay. […] Compounds that provided at least 50% protection were retested. Compounds that provided at least 50% protection on retest were listed as moderately active. […]
pEC50: −log10 of the molar value.

INSERT INTO assay_data (compound, recorded_value) VALUES
  ('CCSc1c2cc(OC)ccc2nc2ccc(OC)cc12', '< 3.70'),
  ('COc1ccc(-n2c(=O)n(C)c(=O)n2-c2ccc(OC)cc2)cc1', '< 3.70'),
  ('COc1cccc(C2c3cc4c(cc3OC(N3CCCC3)C2C)OCO4)c1 (stereo unspecified)', '< 3.70'),
  ('C=C1C(=O)OCC2C(C(=O)O)=CC3C(C)C(C)=CC123 (stereo unspecified)', '< 3.16');

INPUT: Look up and report measured pEC50 for this entry: "CCn1c(SCC(=O)N/N=C/c2ccccc2)nc2ccccc2c1=O"
OUTPUT: < 3.70

INPUT: Supply recorded pEC50 for CC1CN=C(Nc2ccc(S(N)(=O)=O)cc2)S1 (stereo unspecified) here.
OUTPUT: < 3.70

---

Tested on: CEM cells HIV-1 protection, formazan growth assay
Experiment: NCI AIDS Antiviral Assay;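 active = compounds giving half or more protection of infected cells from virus-caused growth loss, again on retest; inactive = the rest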
Where a SMILES comes first, the peptide text is derived from it. The star is where a group is joined. Cbz = O=C(OCc1ccccc1)*
Output constraint: value belongs to active, inactive

# example entries with known answers
INSERT INTO results (compound, study_system, label_value) VALUES
  ('O=C(O)c1ccccc1Sc1ccc(C=C2NC(=S)N(c3ccccc3)C2=O)s1', 'CEM cells HIV-1 protection, formazan growth assay', 'inactive'),
  ('Cn1c2ccccc2n2c(=O)c3cc([N+](=O)[O-])ccc3c(C#N)c12', 'CEM cells HIV-1 protection, formazan growth assay', 'inactive'),
  ('COc1cc([C@@H]2c3cc4c(cc3[C@@H](OC3OC5CO[C@@H](c6cccs6)OC5C(O)C3O)[C@H]3COC(=O)[C@H]23)OCO4)cc(OC)c1O (stereo partly drawn)', 'CEM cells HIV-1 protection, formazan growth assay', 'inactive'),
  ('Clc1ccc(C(SCc2ccccc2)SCc2ccccc2)cc1', 'CEM cells HIV-1 protection, formazan growth assay', 'inactive'),
  ('CCOC(=O)CCC(NC(=O)C(CC(=O)OC)NC(=O)OCc1ccccc1)C(=O)NC(CC(=O)OC)C(=O)NC(CCC(=O)OCC)C(=O)NC(CC(=O)OC)C(=O)NC(CCC(=O)OCC)C(=O)NC(CC(=O)OCC)C(=O)OCC (stereo not drawn) (Cbz-D(OMe)E(OEt)D(OMe)E(OEt)D(OMe)E(OEt)D(OEt)-OEt; configuration not given here)', 'CEM cells HIV-1 protection, formazan growth assay', 'inactive'),
  ('O=C1C(=Cc2cccc(O)c2)N=C(c2ccccc2)N1n1c(-c2ccccc2)nc2ccccc2c1=O', 'CEM cells HIV-1 protection, formazan growth assay', 'inactive'),
  ('C=Cc1cc[n+](CCCCCCCCCCCC)cc1', 'CEM cells HIV-1 protection, formazan growth assay', 'inactive'),
  ('C1CSCCSCCCSC2CCCCC2SC1 (stereo not drawn)', 'CEM cells HIV-1 protection, formazan growth assay', 'inactive');

Consider the additional compound presented here.
INPUT: Hi team, can someone confirm the assay call for "CCOC(=O)CSc1[nH]c(NC(=S)Nc2ccccc2)c(C(N)=O)c1C(N)=O" ?
OUTPUT: inactive

---

Tested on: CEM cells HIV-1 protection, formazan growth assay
Experiment: NCI AIDS Antiviral Assay
Conditions: measured here: growth of uninfected CEM cells
Param label: returns yes when IC50 < 30 µM, returns no otherwise, including exact equality.

INPUT: Lab note: confirm whether the reported IC50 for this compound is below 30 µM, equality not counting. compound: "CCSc1nnc(Sc2c3ccccc3nc3ccccc23)s1"
OUTPUT: yes

INPUT: Lab note: IC50 threshold 30 µM. Does this compound come in strictly under it? "CCOC(=O)Nc1nc2cc(C(=O)OC)n(C)c2s1"
OUTPUT: no

INPUT: Could you please tell me whether IC50 recorded for CCC(O)(COC(N)=O)c1ccccc1 (stereo not drawn) is less than 30 µM?
OUTPUT: no

INPUT: Below 30 µM on IC50? Entry O=C(O)C1=CN(c2ccncc2)C(c2ccco2)=CC1c1ccccc1[N+](=O)[O-] (stereo not drawn)
OUTPUT: yes

INPUT: Does this compound meet the criterion IC50 < 30 µM? "COC(=O)[C@H](CO)NC(=O)CC/C(C)=C/c1ccccc1"
OUTPUT: no

INPUT: In plain terms, does "CCOC(=O)CC(=O)C(=O)NNC1=NCCCN1" come in under 30 µM for IC50?
OUTPUT: no

---

Tested on: CEM cells HIV-1 protection, formazan growth assay
Test: NCI AIDS Antiviral Assay
Conditions: measured here: growth of uninfected CEM cells
property label: IC50

Solved cases (10 shown):
INSERT INTO assay_data (record_smiles, study_system, recorded_value) VALUES
  ('O=C1CCn2c([nH]c3cccc4cccc2c43)=N1', 'CEM cells HIV-1 protection, formazan growth assay', '148 µM'),
  ('Cn1c(N)c(N=O)c(=O)n(C)c1=S', 'CEM cells HIV-1 protection, formazan growth assay', '> 200 µM'),
  ('CC1(C)CC(=O)C(/C=N/C(N)=S)=C(O)C1', 'CEM cells HIV-1 protection, formazan growth assay', '> 200 µM'),
  ('O=c1oc2ccccc2n1P(=O)(N1CCOCC1)N1CCOCC1', 'CEM cells HIV-1 protection, formazan growth assay', '> 251 µM'),
  ('CC1(C)CN(C(=O)OCc2ccccc2)[C@@H]2N1C(=O)[C@@]2(C)OCCCO[C@]1(C)C(=O)N2[C@H]1N(C(=O)OCc1ccccc1)CC2(C)C', 'CEM cells HIV-1 protection, formazan growth assay', '> 200 µM'),
  ('Cc1ccc(-c2n[nH]c(=O)[nH]2)cc1', 'CEM cells HIV-1 protection, formazan growth assay', '> 200 µM'),
  ('C=Cc1c(-c2ccccc2)cnc2[nH]c3ccccc3c12', 'CEM cells HIV-1 protection, formazan growth assay', '> 13.8 µM'),
  ('Nc1cc2nc3ccccc3sc-2cc1=O', 'CEM cells HIV-1 protection, formazan growth assay', '60.3 µM'),
  ('CS(=O)(=O)OCCN1CCN(C(=O)c2cccc3c(Nc4ccc(S(N)(=O)=O)cc4)c4ccccc4nc23)CC1', 'CEM cells HIV-1 protection, formazan growth assay', '> 51.3 µM'),
  ('COc1cc(/C=C/C(=O)O)ccc1OS(=O)(=O)O', 'CEM cells HIV-1 protection, formazan growth assay', '> 200 µM');

Moving on to another molecule below.
INPUT: // Input: "C=CCCC1(CCP(=O)(c2ccccc2)c2ccccc2)OCCO1" . Output its IC50 only.
OUTPUT: 155 µM

---

System: CEM cells HIV-1 protection, formazan growth assay
Experiment: NCI AIDS Antiviral Assay;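 active means compounds giving half or more protection of infected cells from virus-caused growth loss, again on retest; inactive means the rest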
Pick one and only one: active, inactive

The following compounds have reported results that may help.
INSERT INTO measurements (compound, label_value) VALUES
  ('CC(=O)/C(=C/c1cccc(F)c1)C(=O)c1ccccc1', 'inactive'),
  ('CC(=O)Nc1cc(C(=O)Nc2cc(C(=O)Nc3cc(C(=O)Nc4cc(C(=O)Nc5cc(C(=O)NCCC(=O)NCCCN(C)C)n(C)c5)n(C)c4)n(C)c3)n(C)c2)n(C)c1', 'inactive'),
  ('O=c1cc(-c2ccccc2)oc2cc(O)c(O)c(O)c12', 'inactive'),
  ('COc1cccc(NC(=O)CC(=O)N2N=C(C)C(N=Nc3ccc(S(=O)(=O)c4ccc(N=NC5C(=O)N(C(=O)CC(=O)Nc6cccc(OC)c6)N=C5C)cc4)cc3)C2=O)c1 (stereo not given)', 'inactive'),
  ('O=c1[nH]oc2ccccc12', 'inactive'),
  ('CN1C(=O)[C@@H]2[C@@H]3c4ccccc4N[C@@H]3c3[nH]c4ccccc4c3[C@@H]2C1=O', 'inactive'),
  ('CCOC(=O)c1c(N)sc(C)c1C', 'inactive'),
  ('CCN(CC)CC(=N)N(CC)c1ccccc1', 'inactive'),
  ('COc1cc(Nc2cc(Cl)cc(Cl)c2)nc(N)n1', 'inactive'),
  ('COC(=O)[C@]1(C)CCC[C@]2(C)c3cc(C(C)=O)c(C(C)C)cc3CC[C@@H]12', 'inactive');

INPUT: Outcome? "Nc1nc(Cl)c(Cl)c(NCC2(O)CCC2)n1"
OUTPUT: inactive

INPUT: // param item: "COC(=O)c1ncn(Cc2ccccc2)c1N" ; yields the recorded call
OUTPUT: inactive

INPUT: Outcome? [Cl][Cu+].[NH-]C(Cc1c[nH]cn1)C(=O)O (stereo not given)
OUTPUT: inactive
